Documented raw data 2 across a set of compounds
- System Tested: tau (Homo sapiens, UniProt P10636)
- Sequence (P10636 623-695 limits assumed): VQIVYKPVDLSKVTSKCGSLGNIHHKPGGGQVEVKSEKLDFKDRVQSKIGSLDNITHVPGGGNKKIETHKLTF
- Assay Comment: MCE Phenols Library screening, tau biosensor cell seeding assay (AvZ)
- Assay type: cell-based
- Cond: puncta, replicate 2
Give the figure only, with no unit attached.

COc1c(O[C@@H]2O[C@H](CO)[C@@H](O)[C@H](O)[C@H]2O)cc2c(c1O)C(=O)c1c(cc(C)c(O)c1OC)C2=O [Aurantio-obtusin ?-D-glucoside] : 9875.55
C=CCc1ccc(O)c(O)c1 : 725.499
N[C@@H](Cc1c[nH]c2ccc(O)cc12)C(=O)O [L-5-Hydroxytryptophan] : 9887.95
O=C1C[C@@H](c2cc(O)c(O)c(O[C@@H]3O[C@H](CO)[C@@H](O)[C@H](O)[C@H]3O)c2)Oc2cc(O)cc(O)c21 [Plantagoside] : 12484.2
C[C@@H]1O[C@@H](O[C@H]2[C@H](Oc3cc(O)c4c(=O)cc(-c5ccc(O)cc5)oc4c3)O[C@H](CO)[C@@H](O)[C@@H]2O)[C@H](O)[C@H](O)[C@H]1O : 11762.4

Asked: Tell me the measured raw data 2 of COc1ccc(C[C@@H]2c3cc(Oc4cc(C[C@@H]5c6cc(O)c(OC)cc6CCN5C)ccc4O)c(OC)cc3CCN2C)cc1 , please.
Given back: 17279.4

Asked: Let us now turn to OC[C@H]1O[C@@H](Oc2ccc(O)cc2)[C@H](O)[C@@H](O)[C@@H]1O [?-Arbutin]
Given back: 22862.6

Asked: Let us now turn to O=C1N[C@@H]2C(=C[C@H](O)[C@@H](O)[C@H]2O)c2cc3c(c(O)c21)OCO3
Given back: 10263

Asked: Let us now turn to COc1cc(/C=C/c2ccc(O)cc2)cc(OC)c1
Given back: 9586.42

----------
- System Tested: UniProt P10636
- Assay Comment: MCE Phenols Library screening, tau biosensor cell seeding assay (AvZ)
- Assay type: cell-based
- Cond: average of raw data 1 and 2
Documented av puncta across a set of molecules
Give the figure only, with no unit attached.

Answered cases to consult:
O=c1c(O[C@@H]2O[C@H](CO[C@@H]3O[C@H](CO)[C@@H](O)[C@H](O)[C@H]3O)[C@@H](O)[C@H](O)[C@H]2O)c(-c2ccc(O)cc2)oc2cc(O)cc(O)c12 [Kaempferol 3-O-gentiobioside] : 20180.4
CC(=O)c1ccc(O)c(C)c1 [4'-Hydroxy-3'-methylacetophenone] : 18387.5

Field: next molecule
Asked: # value lookup — system UniProt P10636, readout av puncta, item COc1cc(-c2oc3cc(O)cc(O)c3c(=O)c2O[C@@H]2O[C@H](CO[C@@H]3O[C@@H](C)[C@H](O)[C@@H](O)[C@H]3O)[C@@H](O)[C@H](O)[C@H]2O[C@@H]2O[C@@H](C)[C@H](O)[C@@H](O)[C@H]2O)ccc1O [Typhaneoside]
Given back: 18163.3

----------
Documented raw data 1 across a set of molecules
- System Tested: tau (Homo sapiens, UniProt P10636)
- Assay Comment: MCE Phenols Library screening, tau biosensor cell seeding assay (AvZ)
- Type: cell-based
- Cond: puncta, replicate 1
*1 amine or outer side, *2 acyl side, *3 side chain or, on linkers, in order; H or OH if unused. Where a SMILES comes first, the peptide text is derived from it. Bridges are numbered along the chain shown (N, C = ends). [ ]: non-standard residue; d: D form. hTyr(3S-OH,4S-OH,3'-OSO3H) = N[C@H](C(=O)O)[C@H](O)[C@@H](O)c1ccc(O)c(OS(=O)(=O)O)c1; Orn(4R-OH,5R-OH) = O=C([C@H](C[C@@H](O)[C@@H](O)N[*:3])N[*:1])[*:2]; Pro(3S-OH,4S-Me) = C[C@H]1CN[C@H](C(=O)O)[C@H]1O; Gln(3R-OH) = NC(=O)C[C@@H](O)[C@H](N)C(=O)O; Hyp = O=C(O)[C@@H]1C[C@@H](O)CN1
Give the figure only, with no unit attached.

O=c1c(O)c(-c2ccc(O)cc2)oc2c(O)c(O)cc(O)c12 [Herbacetin] : 787.042
O=C(C=Cc1ccc(O)c(O)c1)OC1CC(O)(C(=O)O)CC(O)C1OC(=O)C=Cc1ccc(O)c(O)c1 (centres unmarked) [4,5-Dicaffeoylquinic acid] : 14137.8
CC(=O)N[C@@H](Cc1ccc(O)cc1)C(=O)O [N-Acetyl-L-tyrosine] : 25475.6
C[C@@H](O)[C@@H]1NC(=O)[C@@H](N)C[C@@H](O)[C@@H](O)NC(=O)[C@@H]2[C@@H](O)[C@@H](C)CN2C(=O)[C@H]([C@H](O)CC(N)=O)NC(=O)[C@H]([C@H](O)[C@@H](O)c2ccc(O)c(OS(=O)(=O)O)c2)NC(=O)[C@@H]2C[C@@H](O)CN2C1=O [FR179642] (H-[Orn(4R-OH,5R-OH)]T[Hyp][hTyr(3S-OH,4S-OH,3'-OSO3H)][Gln(3R-OH)][Pro(3S-OH,4S-Me)]; lactam 1-C) : 39497.8

Field: next molecule
Asked: Tell me the measured raw data 1 of O=C(O[C@@H]1Cc2c(O)cc(O)cc2O[C@@H]1c1ccc(O)c(O)c1)c1cc(O)c(O)c(O)c1 [(-)-Epicatechin gallate] , please.
Given back: 12408.5

----------
- System Tested: tau (Homo sapiens, UniProt P10636)
- Assay Comment: MCE Phenols Library screening, tau biosensor cell seeding assay (AvZ)
- Assay type: cell-based
- Cond: Z score, replicate 2
Documented Z Repl 2 across a set of molecules
Give the figure only, with no unit attached.

Answered cases to consult:
Oc1ccc(/C=C/c2cc(O)cc(O)c2)cc1 [Resveratrol] : -0.816
C[C@@H]1O[C@@H](OC[C@H]2O[C@@H](OCCc3ccc(O)c(O)c3)[C@H](O)[C@@H](O)[C@@H]2OC(=O)/C=C/c2ccc(O)c(O)c2)[C@H](O)[C@H](O)[C@H]1O [Forsythiaside A] : -0.492
COc1ccc2c(=O)c(-c3ccc(O)cc3)coc2c1 [Isoformononetin] : -0.155

Field: next molecule
Asked: Tell me the measured Z Repl 2 of Cc1cc(O)cc(C)c1O [2,6-Dimethylhydroquinone] , please.
Given back: -0.434

----------
- System Tested: tau (Homo sapiens, UniProt P10636)
- Assay Comment: MCE Phenols Library screening, tau biosensor cell seeding assay (AvZ)
- Assay type: cell-based
- Cond: Z score, replicate 2
Classify: label 1 when Z Repl 2 is strictly less than -0.3; label 0 when Z Repl 2 is not.

Asked: Lab note: confirm whether the reported Z Repl 2 for this molecule is below -0.3, equality not counting. molecule: COc1c(O)cc2oc(-c3ccccc3)cc(=O)c2c1O
Given back: label 1

Asked: Let us now turn to COc1cc2c(CCNC(C)=O)c[nH]c2cc1O [6-Hydroxymelatonin]
Given back: label 1

Asked: Let us now turn to O=c1ccc2ccc(O)cc2o1
Given back: label 1

Asked: Let us now turn to O=C1c2cc(CO)cc(O)c2C(=O)c2c(O[C@@H]3O[C@H](CO)[C@@H](O)[C@H](O)[C@H]3O)cccc21 [Aloe-emodin-8-O-?-D-glucopyranoside]
Given back: label 0

Asked: Let us now turn to COc1cc(CNC(=O)CCCCCCCC(C)C)ccc1O [Homodihydrocapsaicin I]
Given back: label 0

Asked: Let us now turn to COC(=O)c1cc(O)c(O)c(O)c1 [Methyl gallate]
Given back: label 1

----------
- System Tested: tau (Homo sapiens)
- Assay Comment: MCE Phenols Library screening, tau biosensor cell seeding assay (AvZ)
- Format: cell-based
- Cond: raw puncta, replicate 1
Documented raw data 1 across a set of compounds
Give the figure only, with no unit attached.

Answered cases to consult:
COc1cc(O)c2c(c1)O[C@H](c1ccccc1)CC2=O [Pinostrobin] : 16779.4
COc1cc2c(cc1OC)[C@@H](Cc1ccc(O)c(Oc3cc4c(cc3OC)CCN(C)[C@@H]4Cc3ccc(O)cc3)c1)N(C)CC2 [Liensinine] : 21336.6
CC(=O)c1cc2c(CO)cc(O)cc2oc1=O [Armillarisin A] : 17917.5
COc1c(O[C@@H]2O[C@H](C(=O)O)[C@@H](O)[C@H](O)[C@H]2O)cc(O)c2c(=O)cc(-c3ccccc3)oc12 [Wogonoside] : 25879

Asked: Tell me the measured raw data 1 of O=c1c(-c2ccc(O)cc2)coc2c([C@@H]3O[C@H](CO[C@@H]4OC[C@@H](O)[C@H](O)[C@H]4O)[C@@H](O)[C@H](O)[C@H]3O)c(O)ccc12 [Puerarin 6''-O-Xyloside] , please.
Given back: 25849

Asked: Let us now turn to C[C@@H]1O[C@@H](O[C@@H]2[C@@H](O)[C@H](O)[C@@H](CO)O[C@H]2c2c(O)cc(O)c3c(=O)cc(-c4ccc(O)cc4)oc23)[C@H](O)[C@H](O)[C@H]1O [Vitexin-2"-O-rhamnoside]
Given back: 29301.6
